Known Ki of a selection of molecules
Target: human EP3 receptor (Homo sapiens)
Construct: expressed in transfected cells
Sequence (P43115 whole entry): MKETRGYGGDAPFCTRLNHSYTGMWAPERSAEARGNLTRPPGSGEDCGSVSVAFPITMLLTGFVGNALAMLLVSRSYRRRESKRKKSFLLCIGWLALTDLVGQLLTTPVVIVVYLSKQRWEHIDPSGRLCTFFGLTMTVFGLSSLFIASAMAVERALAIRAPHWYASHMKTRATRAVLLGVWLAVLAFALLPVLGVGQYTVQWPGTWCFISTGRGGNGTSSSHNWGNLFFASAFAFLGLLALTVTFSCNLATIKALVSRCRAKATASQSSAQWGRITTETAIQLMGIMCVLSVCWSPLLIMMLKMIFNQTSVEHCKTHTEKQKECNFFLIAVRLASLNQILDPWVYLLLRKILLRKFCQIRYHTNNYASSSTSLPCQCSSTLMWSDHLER
Test: Binding ability to human EP receptors ([3H]PGE2 displacement), EP3
Settings: membranes expressing human EP3; [3H]PGE2 2.5 nM; Cheng-Prusoff; read-out: pKi (M) EP3 (converted)

O=C(Nc1cccc(Cc2nnn[nH]2)c1)c1ccc(-c2ccc(F)cc2)o1	> 1e-05 M
O=C(Nc1cccc(Cc2nnn[nH]2)c1)c1ccc(-c2ccc(Cl)cc2)o1	> 1e-05 M
O=C(Nc1cccc(Cc2nnn[nH]2)c1)c1cccc(-c2ccc(F)cc2)n1	> 1e-05 M
O=C(O)/C=C/c1cccc(NC(=O)c2csc(-c3ccccc3)n2)c1	> 1e-05 M
O=C(O)Cc1cccc(C(=O)Nc2cccc(-c3ccccc3)c2)c1	> 1e-05 M

Entry O=C(Nc1cccc(Cc2nnn[nH]2)c1)c1ccc(-c2cccc(Cl)c2)o1 has what Ki?
> 1e-05 M

Entry COc1cccc(-c2ccc(C(=O)Nc3cccc(CC(=O)O)c3)o2)c1 has what Ki?
> 1e-05 M

Entry O=C(O)CCc1cccc(NC(=O)c2cccc(-c3cccc(F)c3)n2)c1 has what Ki?
> 1e-05 M

Entry O=C(O)/C=C/c1cccc(NC(=O)c2csc(-c3cccc(F)c3)n2)c1 has what Ki?
> 1e-05 M

Entry O=C(O)CCc1cccc(NC(=O)c2ccc(-c3cccc(Cl)c3)o2)c1 has what Ki?
> 1e-05 M

Entry O=C(O)/C=C/c1cccc(NC(=O)c2ccc(C34CC5CC(CC(C5)C3)C4)o2)c1 has what Ki?
> 1e-05 M

Entry O=C(O)Cc1cccc(NC(=O)c2ccc(-c3ccc4[nH]ccc4c3)o2)c1 has what Ki?
> 1e-05 M

Entry O=C(O)Cc1cccc(NC(=O)c2cccc(-c3cc(Cl)cc(Cl)c3)n2)c1 has what Ki?
> 1e-05 M

Entry O=C(Nc1cccc(/C=C/c2nnn[nH]2)c1)c1cccc(-c2ccccc2)n1 has what Ki?
> 1e-05 M
